Hello, the source for this data is ChEMBL document CHEMBL3885861, in case you need it.

Species on record: Rattus norvegicus
Test: Open TG-GATES - Regimen: Daily Repeat
Format: toxicity, organism-based, Sprague-Dawley
Design: regimen Daily Repeat, gender Male, age 6 weeks
Settings: in vivo, po, 1000 mg/kg, […], tissue Plasma, route gavage, dose level High, time 7 day
In plain terms, low TP, meaning strictly below 6 g/dL, gives 1 (yes), and everything else gives 0 (no).

q: Please determine if NC(N)=Nc1nc(CSCCC(N)=NS(N)(=O)=O)cs1 is below 6 g/dL in terms of TP.
a: 1 (yes)

q: Please determine if CCOC(=O)CCC(=O)O[C@H]1[C@H](O[C@@H]2[C@@H](C)[C@H](O[C@H]3C[C@@](C)(OC)[C@@H](O)[C@H](C)O3)[C@@H](C)C(=O)O[C@H](CC)[C@@](C)(O)[C@H](O)[C@@H](C)C(=O)[C@H](C)C[C@@]2(C)O)O[C@H](C)C[C@@H]1N(C)C [ERYTHROMYCIN ETHYLSUCCINATE] is below 6 g/dL in terms of TP.
a: 1 (yes)

q: Please determine if COc1ccc2[nH]c([S+]([O-])Cc3ncc(C)c(OC)c3C)nc2c1 (stereo unspecified) is below 6 g/dL in terms of TP.
a: 0 (no)

---

Field: Neu. Provide a value for each of the molecules that follow.
Species on record: Rattus norvegicus
Test: Open TG-GATES - Regimen: Single
Format: toxicity, organism-based, Sprague-Dawley
Set-up: regimen Single, gender Male, age 6 weeks
Settings: in vivo, po, 100 mg/kg, 3 h, tissue Blood, route gavage, dose level Low
Number plus unit, in that order.

q: Query (molecule): NC(N)=Nc1nc(CSCCC(N)=NS(N)(=O)=O)cs1 ; field requested: Neu
a: 24%

q: Query (molecule): COc1ccc2[nH]c([S+]([O-])Cc3ncc(C)c(OC)c3C)nc2c1 (centres undefined) ; field requested: Neu
a: 18%

q: Query (molecule): COC1=CC(=O)C[C@@H](C)[C@]12Oc1c(Cl)c(OC)cc(OC)c1C2=O ; field requested: Neu
a: 19%

q: Query (molecule): CCOC(=O)CCC(=O)O[C@H]1[C@H](O[C@@H]2[C@@H](C)[C@H](O[C@H]3C[C@@](C)(OC)[C@@H](O)[C@H](C)O3)[C@@H](C)C(=O)O[C@H](CC)[C@@](C)(O)[C@H](O)[C@@H](C)C(=O)[C@H](C)C[C@@]2(C)O)O[C@H](C)C[C@@H]1N(C)C [ERYTHROMYCIN ETHYLSUCCINATE] ; field requested: Neu
a: 18.6%

---

Field: PT. Provide a value for each of the molecules that follow.
Species: Rattus norvegicus
Test: Open TG-GATES - Regimen: Single
Format: toxicity, organism-based, Sprague-Dawley
Parameters: regimen Single, gender Male, age 6 weeks
Conditions: in vivo, po, 1000 mg/kg, 9 h, tissue Blood, route gavage, dose level High
Use s as the unit, but write only the number.

q: Query (molecule): COC1=CC(=O)C[C@@H](C)[C@]12Oc1c(Cl)c(OC)cc(OC)c1C2=O ; field requested: PT
a: 13.9

q: Query (molecule): CCOC(=O)CCC(=O)O[C@H]1[C@H](O[C@@H]2[C@@H](C)[C@H](O[C@H]3C[C@@](C)(OC)[C@@H](O)[C@H](C)O3)[C@@H](C)C(=O)O[C@H](CC)[C@@](C)(O)[C@H](O)[C@@H](C)C(=O)[C@H](C)C[C@@]2(C)O)O[C@H](C)C[C@@H]1N(C)C [ERYTHROMYCIN ETHYLSUCCINATE] ; field requested: PT
a: 15.4

q: Query (molecule): NC(N)=Nc1nc(CSCCC(N)=NS(N)(=O)=O)cs1 ; field requested: PT
a: 12.4

q: Query (molecule): COc1ccc2[nH]c([S+]([O-])Cc3ncc(C)c(OC)c3C)nc2c1 (centres undefined) ; field requested: PT
a: 12.9

---

Species on record: Rattus norvegicus
Experiment: Open TG-GATES - Regimen: Daily Repeat
Type: toxicity, organism-based, Sprague-Dawley
Parameters: regimen Daily Repeat, gender Male, age 6 weeks
Details: in vivo, po, 0 mg/kg, […], tissue Plasma, route gavage, dose level Control, time 14 day
In plain terms, low TBIL, meaning strictly below 0.2 mg/dL, gives Met, and everything else gives Not met.

q: Please determine if NNC(=O)c1ccncc1 is below 0.2 mg/dL in terms of TBIL.
a: Not met

q: Please determine if CCOc1ccc(NC(=O)CC(C)O)cc1 (centres undefined) is below 0.2 mg/dL in terms of TBIL.
a: Met

q: Please determine if COc1ccc2[nH]c([S+]([O-])Cc3ncc(C)c(OC)c3C)nc2c1 (centres undefined) is below 0.2 mg/dL in terms of TBIL.
a: Met

q: Please determine if CN1C(=O)CN=C(c2ccccc2)c2cc(Cl)ccc21 is below 0.2 mg/dL in terms of TBIL.
a: Not met

q: Please determine if O=C(CCCN1CCC(O)(c2ccc(Cl)cc2)CC1)c1ccc(F)cc1 is below 0.2 mg/dL in terms of TBIL.
a: Not met

q: Please determine if CN(C)CCCN1c2ccccc2CCc2ccccc21 is below 0.2 mg/dL in terms of TBIL.
a: Met

q: Please determine if CC1=C(/C=C/C(C)=C/C=C/C(C)=C/CO)C(C)(C)CCC1 is below 0.2 mg/dL in terms of TBIL.
a: Met

---

Organism: Rattus norvegicus
Assay: Open TG-GATES - Regimen: Daily Repeat
Format: toxicity, organism-based, Sprague-Dawley
Set-up: regimen Daily Repeat, gender Male, age 6 weeks
Details: in vivo, po, 1000 mg/kg, […], tissue Plasma, route gavage, dose level High, time 7 day
Field: Ca. Provide a value for each of the molecules that follow.
Number plus unit, in that order.

q: Query (molecule): CCOC(=O)CCC(=O)O[C@H]1[C@H](O[C@@H]2[C@@H](C)[C@H](O[C@H]3C[C@@](C)(OC)[C@@H](O)[C@H](C)O3)[C@@H](C)C(=O)O[C@H](CC)[C@@](C)(O)[C@H](O)[C@@H](C)C(=O)[C@H](C)C[C@@]2(C)O)O[C@H](C)C[C@@H]1N(C)C [ERYTHROMYCIN ETHYLSUCCINATE] ; field requested: Ca
a: 10.5 mg/dL

q: Query (molecule): NC(N)=Nc1nc(CSCCC(N)=NS(N)(=O)=O)cs1 [FAMOTIDINE] ; field requested: Ca
a: 10.8 mg/dL

q: Query (molecule): CCOc1ccc(NC(=O)CC(C)O)cc1 (stereo not given) [BUCETIN] ; field requested: Ca
a: 10.9 mg/dL

q: Query (molecule): COC1=CC(=O)C[C@@H](C)[C@]12Oc1c(Cl)c(OC)cc(OC)c1C2=O [GRISEOFULVIN] ; field requested: Ca
a: 10.8 mg/dL

q: Query (molecule): COc1ccc2[nH]c([S+]([O-])Cc3ncc(C)c(OC)c3C)nc2c1 (stereo not given) [OMEPRAZOLE] ; field requested: Ca
a: 10.7 mg/dL

---

Field: MCHC. Provide a value for each of the compounds that follow.
Organism: Rattus norvegicus
Test: Open TG-GATES - Regimen: Single
Type: toxicity, organism-based, Sprague-Dawley
Design: regimen Single, gender Male, age 6 weeks
Details: in vivo, po, 10 mg/kg, 6 h, tissue Blood, route gavage, dose level Low
Use % as the unit, but write only the number.

q: Query (compound): CC1=C(/C=C/C(C)=C/C=C/C(C)=C/CO)C(C)(C)CCC1 ; field requested: MCHC
a: 34.3

q: Query (compound): CC(C)OC(=O)C(C)(C)Oc1ccc(C(=O)c2ccc(Cl)cc2)cc1 [FENOFIBRATE] ; field requested: MCHC
a: 32

q: Query (compound): CN(C)CCCN1c2ccccc2CCc2ccc(Cl)cc21 ; field requested: MCHC
a: 32.1

q: Query (compound): CN(C)CCN(Cc1cccs1)c1ccccn1 ; field requested: MCHC
a: 32.6

q: Query (compound): CN(C)CCCN1c2ccccc2CCc2ccccc21 ; field requested: MCHC
a: 32.3

---

Organism: Rattus norvegicus
Assay: Open TG-GATES - Regimen: Daily Repeat
Format: toxicity, organism-based, Sprague-Dawley
Parameters: regimen Daily Repeat, gender Male, age 6 weeks
Conditions: in vivo, po, 1000 mg/kg, […], tissue Blood, route gavage, dose level High, time 28 day
OBSERVABLE: Mono
Number plus unit, in that order.

q: Query (molecule): CCOc1ccc(NC(=O)CC(C)O)cc1 (stereo unspecified) [BUCETIN] ; field requested: Mono
a: 2.2%

q: Query (molecule): CC(C)OC(=O)C(C)(C)Oc1ccc(C(=O)c2ccc(Cl)cc2)cc1 [FENOFIBRATE] ; field requested: Mono
a: 3.4%

q: Query (molecule): NC(N)=Nc1nc(CSCCC(N)=NS(N)(=O)=O)cs1 [FAMOTIDINE] ; field requested: Mono
a: 1.4%

q: Query (molecule): CCOC(=O)CCC(=O)O[C@H]1[C@H](O[C@@H]2[C@@H](C)[C@H](O[C@H]3C[C@@](C)(OC)[C@@H](O)[C@H](C)O3)[C@@H](C)C(=O)O[C@H](CC)[C@@](C)(O)[C@H](O)[C@@H](C)C(=O)[C@H](C)C[C@@]2(C)O)O[C@H](C)C[C@@H]1N(C)C [ERYTHROMYCIN ETHYLSUCCINATE] ; field requested: Mono
a: 2.2%

q: Query (molecule): COc1ccc2[nH]c([S+]([O-])Cc3ncc(C)c(OC)c3C)nc2c1 (stereo unspecified) [OMEPRAZOLE] ; field requested: Mono
a: 2.2%

q: Query (molecule): COC1=CC(=O)C[C@@H](C)[C@]12Oc1c(Cl)c(OC)cc(OC)c1C2=O [GRISEOFULVIN] ; field requested: Mono
a: 2.4%
